Entry source: patent US7943602B2

Tested on: immature male Wistar rats
Assay: In vivo androgenicity, seminal vesicle wet weight after oral dosing for 5 days
Set-up: species or system rat
Settings: oral dose 10 mg/kg/day, once daily for 5 days, relative to vehicle treated rats
measure: Increase seminal vesicle wet weight (%)
Numbers only, in %.

Parameters: items (list). Returns: Increase seminal vesicle wet weight for each item.
1. C[C@]12CC[C@H]3[C@@H](CCC4=CC(=O)CC[C@@]43C)[C@@H]1[C@@H](O)C[C@@H]2O [15α-hydroxytestosterone, 15α,17β-dihydroxy-4-androsten-3-one]
2. C[C@]12CCC(=O)C[C@@H]1CC[C@@H]1[C@@H]2CC[C@]2(C)[C@@H](O)CC[C@@H]12 [5α-dihydroxytestosterone, DHT, reference compound]
3. C[C@]12CC[C@H]3[C@@H](CCC4=CC(=O)CC[C@@]43C)[C@@H]1[C@H](O)C[C@@H]2O [15β-hydroxytestosterone, 15β,17β-dihydroxy-4-androsten-3-one]

Result:
1. 28
2. 5
3. 20

Query: Look at this molecule and give its reported Increase seminal vesicle wet weight. C[C@]12CC[C@H]3[C@@H](CCC4=CC(=O)CC[C@@]43C)[C@@H]1CC[C@@H]2O [Testosterone, 17β-hydroxy-4-androsten-3-one, reference compound]
Result: 41
